Hey, just so you know, these numbers are from PubChem BioAssay (Tox21).

- experiment_notes: qHTS assay to identify small molecule antagonists of the sonic hedgehog signaling (Shh) pathway - cell viability counter screen (AID 1259367); further: on the % scale 0 is the no-effect control and ±100 the full control effect; nearly all actives have a fitted effect of over 55% in size
- experimental_parameters: NIH/3T3 Gli1-Luc viability, CellTiter-Fluor, 24 h; series mostly up to 42.5 µM
Records with an inconclusive call do not appear. The source made the active and inactive calls. The call rests on the fitted dose curve; in most records, active means well fitted cell-killing curve with a large enough effect in the repeat runs; inconclusive means weak or mixed curves, or effect the other way; inactive means no such curve, though single readings can be large or run the other way.
outcome_measure: viability change, negative = cytotoxic

The cases that follow already have their viability change, negative = cytotoxic on record.
{"compound": "CC/C=C\\CC/C=C/C(OCC)OCC", "result": "inactive"}
{"compound": "CCCC(=O)O[C@]1(C(=O)CO)CC[C@H]2[C@@H]3CCC4=CC(=O)CC[C@]4(C)[C@H]3[C@@H](O)C[C@@]21C", "result": "inactive"}
{"compound": "NS(=O)(=O)c1cc(C(=O)NN2C[C@H]3[C@H]4CCC(C4)[C@H]3C2)ccc1Cl", "result": "inactive"}
{"compound": "O=c1[nH]c(=O)n([C@H]2C[C@H](O)[C@@H](CO)O2)cc1I", "result": "inactive"}
{"compound": "O=C(O)CCCc1ccccc1", "result": "inactive"}

Which viability change, negative = cytotoxic is listed for Cc1cc2c(cc1S(N)(=O)=O)S(=O)(=O)CCC2 ? inactive

# lookup: viability change, negative = cytotoxic of CC(C)(C)c1nnc(NS(=O)(=O)c2ccccc2)s1 inactive

I am curious: what viability change, negative = cytotoxic value has been reported for OC(CCN1CCCCC1)(c1ccccc1)C1CC2C=CC1C2 (stereo not drawn) ? inactive

Name the recorded viability change, negative = cytotoxic for COc1ccccc1OCC(O)CN1CCN(CC(=O)Nc2c(C)cccc2C)CC1 (stereo not drawn) . inactive

Return reported viability change, negative = cytotoxic; argument: COC(=O)c1cc(C(=O)OC)cc(S(=O)(=O)O)c1 inactive

Give the measured viability change, negative = cytotoxic of C=COCC1CCC(CO)CC1 (stereo not drawn) . inactive

If you can, please state the reported viability change, negative = cytotoxic value of CC(C)(C)NCCNC(C)(C)C . inactive

Item under review: CCCCNC(=O)NCCCC . Reported viability change, negative = cytotoxic? inactive

I am curious: what viability change, negative = cytotoxic value has been reported for CCCCCSCCCCC ? inactive

Fill in the blank: the reported viability change, negative = cytotoxic of CN1C(=O)N(C)C(O)C1O (stereo not drawn) is ____. inactive

Field request: viability change, negative = cytotoxic | item: Cc1ccc(Cl)cc1Cl inactive

Requested field: viability change, negative = cytotoxic. Item: CCCCCCCCCCCCCC=O 0.0972% [at 8.39 µM] (inactive)

What measured viability change, negative = cytotoxic goes with Nc1nc2c(ncn2COC(CO)CO)c(=O)[nH]1 ? inactive

Could you tell me which viability change, negative = cytotoxic is on file for Cc1c(O)cccc1O ? inactive
